Each recorded value in this set is attributed to patent US7799776B2.

- target-system: recombinant human IDO (Homo sapiens, UniProt P14902)
- Sequence (P14902 whole entry): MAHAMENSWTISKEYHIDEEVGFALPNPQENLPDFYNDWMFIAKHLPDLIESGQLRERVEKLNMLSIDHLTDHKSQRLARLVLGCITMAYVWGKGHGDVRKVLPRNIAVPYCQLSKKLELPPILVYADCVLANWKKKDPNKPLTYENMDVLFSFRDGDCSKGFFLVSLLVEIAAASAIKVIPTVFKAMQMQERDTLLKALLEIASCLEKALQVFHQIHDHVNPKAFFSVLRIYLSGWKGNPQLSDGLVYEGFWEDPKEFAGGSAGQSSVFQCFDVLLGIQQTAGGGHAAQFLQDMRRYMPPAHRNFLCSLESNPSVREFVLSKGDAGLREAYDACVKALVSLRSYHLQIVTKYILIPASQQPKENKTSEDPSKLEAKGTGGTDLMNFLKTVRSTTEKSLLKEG
- run-description: IDO inhibition kinetics (N-formylkynurenine formation, absorbance at 321 nm)
- Assay type: biochemical
- condition: 50 nM recombinant human IDO, 100 μM L-Tryptophan, pH 6.5; read-out: Ki
measurement-label: Ki (µM)

Solved cases below.
- CC(=O)c1c(C)cc2cc3c(c(O)c2c1O)C(=O)C(C)=C(O)C3(C)C: 3.2
- CC1=CC(=O)c2ccccc2C1=O [Menadione (Vitamin K3), Menadione, reference compound]: 0.58

a. CCCc1c(C(=O)OC)c(OC)cc2cc3c(c(O)c12)C(=O)C(C)(O)C(=O)C3(C)C (stereo not shown) [2-Hydroxygarvin A]
b. O=C1C=C(O)C(=O)c2ccccc21
// task: argmin of Ki over [ a , b ] Response format: the label of the selected entry.
a

====

- target-system: recombinant human IDO (Homo sapiens)
- run-description: IDO inhibition kinetics (N-formylkynurenine formation, absorbance at 321 nm)
- Assay type: biochemical
- condition: 50 nM recombinant human IDO, 100 μM L-Tryptophan, pH 6.5; read-out: Ki
pKi: −log10 of the molar value.
# pKi per record follows

Fill in the blank: the reported pKi of Oc1ccc(O)cc1 [Dihydroquinone, reference compound] is ____.
< 2.30

What value of measured pKi is listed for CC1Cc2c(c(O)cc3cc4c(c(O)c23)OC(C)(C)C4(C)C)C(=O)O1 (stereo not drawn) [Garvin C] ?
~2.68

// pKi lookup, key: CC(=O)CC(c1ccccc1)c1c(O)c2ccccc2oc1=O (stereo not drawn) [Warfarin, reference compound]
< 4.49
